Tested on: Wolbachia pipientis (wAlbB) in C6/36 (wAlbB) cells
ASSAY PROTOCOL: acumen high-throughput anti-Wolbachia assay
Format: cell-based
TEST CONTEXT: C6/36, 168 h, read-out: anti-Wolbachia IC50 in the acumen assay
QUANTITY MEASURED: pIC50
// returns pIC50 (minus log10 of molar concentration), number only

Query :: // query pIC50 value for entry C[C@H]1c2cccc(O)c2C(=O)C2=C(O)[C@]3(O)C(=O)C(C(N)=O)=C(O)[C@@H](N(C)C)[C@@H]3[C@@H](O)[C@@H]21 [Doxycycline, doxycycline]
Result :: 7.75
